System: MDA-MB-231 breast
Experiment: NCI tumour cell line growth inhibition, 48 h

| COMPOUND | GI50 |
| --- | --- |
| CCOC(=O)c1cc(C(=O)c2cc(OC)c(OC)c(OC)c2)n2ncccc12 | 1.82 µM |
| Cc1cccc(N(C)C(=O)[C@@H]2[C@H](O)CCN2c2nc(C)cc(C(F)(F)F)c2C#N)c1 | 19.3 µM |
| CC(=O)c1ccc2c(c1)c1cc(C(C)=O)ccc1n2CCNC(C)C | 0.516 µM |
| CCCCCCCCCCCCOC1C(CNC(=O)C2OC3OC(C)(C)OC3C2NC(=O)Nc2ccc(CC(=O)OC)cc2)OC2OC(C)(C)OC21 (stereo unspecified) | 8.43 µM |
| COC[C@@H](N=C1NC(=O)/C(=C/c2ccc3ncccc3c2)S1)c1ccccc1 | 12.7 µM |
| Cc1nc2ccc(Nc3nc(Cl)nc(N4CCOCC4)n3)cc2n1Cc1ccccc1 | 2.22 µM |
